Values compiled from the RNAGym collection of RNA variant scans (doi:10.1093/nar/gkz1192).

B1: CPEB3 Ribozyme (parent)
chain: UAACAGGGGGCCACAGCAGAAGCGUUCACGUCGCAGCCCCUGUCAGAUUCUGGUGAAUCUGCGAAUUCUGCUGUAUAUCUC

# Variants of: B1
# METHOD_SUMMARY: self-cleavage, relative activity (ratio to wild type); higher = more cleavage; in vitro, sequencing
Entry flag: Y if self-cleavage reaches 0.3; N if it does not.

Before answering, review these 3 worked examples.
VARIANT_DESIGNATION	CATEGORY
A3G C81G	Y
U69A U80C	Y
G36A A77G	N

Kindly consider the entry below.
## Task Reported self-cleavage reaches at least 0.3 for C14U U78G ?
## Result Y
